ASSAYED TARGET: human IL-17AA (Homo sapiens, UniProt Q16552)
Sequence (Q16552 24-155): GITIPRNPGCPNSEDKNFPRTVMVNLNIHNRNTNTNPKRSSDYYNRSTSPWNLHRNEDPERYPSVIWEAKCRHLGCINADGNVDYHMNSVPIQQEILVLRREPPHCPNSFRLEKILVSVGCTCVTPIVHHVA
Sequence (Q16552 24-155): as above
ASSAY SUMMARY: IL-8 release assay in human epithelial keratinocytes adult (HEKa)
CONDITION LABEL: 3 ng/ml human IL-17AA + 10 ng/ml human TNFalpha, 68-72 h, IL-8 by HTRF, read-out: Rel EC50 L-8 release assay
OBSERVABLE: EC50

Some compounds with recorded EC50:
{"COMPOUND": "Cc1cnn(C)c1-c1ccc(NC(=O)[C@@H](NC(=O)c2ccnn2C)[C@@H](c2cccc(-c3cc(N4C[C@@H]5C[C@H]4CO5)ncn3)c2)C2CC2)cc1", "TEST RESULT": "0.1 to 1 µM"}
{"COMPOUND": "Cc1cnn(C)c1-c1ccc(NC(=O)[C@@H](NC(=O)c2ccnn2C)[C@@H](c2cccc(-c3cncc(N4C[C@@H]5C[C@H]4CO5)c3)c2)C2CC2)cc1", "TEST RESULT": "< 0.1 µM"}
{"COMPOUND": "Cc1n[nH]c(C)c1-c1ccc(NC(=O)[C@@H](NC(=O)C2(F)CC2)[C@@H]2CCCc3ccc(-c4ccc(=O)n(C(C)C)c4)cc32)cc1O", "TEST RESULT": "< 0.1 µM"}

Using the record for Cn1cnnc1-c1ccc(NC(=O)C(Cc2cc(-c3ccc(O)c(C(=O)N4CCNCC4)c3)ccc2Cl)NC(=O)c2ccnn2C)cc1 (stereo not drawn) , state its measured EC50. > 1 µM

Using the record for Cc1ncnn1-c1ccc(NC(=O)C(Cc2cc(-c3ccc(=O)n(C(C)C)c3)ccc2Cl)NC(=O)c2ccnn2C)cc1 (stereo not drawn) , state its measured EC50. > 1 µM

Using the record for CC(C)N(C)c1cc(-c2ccc(Cl)c(CC(NC(=O)c3ccnn3C)C(=O)Nc3ccc(-c4cncn4C)cc3)c2)ccn1 (stereo not drawn) , state its measured EC50. < 0.1 µM

###

Consider the following compounds and their measured EC50 readings.
ASSAYED TARGET: human IL-17AA (Homo sapiens)
Construct: host or cells: HEK (human embryonic kidney) cells
ASSAY SUMMARY: IL-8 release assay in human epithelial keratinocytes adult (HEKa)
Format: cell-based
CONDITION LABEL: 3 ng/ml human IL-17AA + 10 ng/ml human TNFalpha, 68-72 h, IL-8 by HTRF, read-out: Rel EC50 L-8 release assay
Protocol: Example: IL-8 release assay in human epithelial keratinocytes adult (HEKa) Keratinocytes were seeded at 3500 cells/well in 384-well ViewPlates (Perkin Elmer) in Epilife medium (Thermo Fisher) containing human keratinocyte growth supplement (HKGS) without hydrocortisone and incubated in a humid incubator at 37° C., 5% CO2, overnight. […] for test compounds, by the use of acoustic pipetting. […] Cytotoxicity was measured in the cell-containing […]

Some compounds with recorded EC50:
{"COMPOUND": "Cn1cncc1-c1ccc(NC(=O)C(Cc2cc(-c3cccc(C(C)(C)O)c3)ccc2Cl)NC(=O)c2ccnn2C)cc1 (stereo not drawn) [Example 179]", "EC50": "< 100 nM"}
{"COMPOUND": "Cc1nocc1C(=O)NC(Cc1cc(-c2ccc(=O)n(C3CC3)c2)ccc1Cl)C(=O)Nc1ccc(-c2nncn2C)cc1 (stereo not drawn) [Example 63]", "EC50": "> 1000 nM"}
{"COMPOUND": "Cc1n[nH]c(C)c1-c1ccc(NC(=O)[C@H](Cc2cc(-c3cccc(C(C)(C)O)c3)ccc2Cl)NC(=O)c2ccnn2C)cc1 [Example 58]", "EC50": "< 100 nM"}
{"COMPOUND": "Cc1cnn(C)c1-c1ccc(NC(=O)[C@H](Cc2cc(-c3ccc(=O)n(C(C)C)c3)ccc2Cl)NC(=O)C2(C)CC2)cc1 [Example 334]", "EC50": "100 to 1000 nM"}
{"COMPOUND": "Cc1n[nH]c(C)c1-c1ccc(NC(=O)[C@@H](NC(=O)c2ccnn2C)[C@@H]2CCc3ccc(-c4cnn(C5CC5)c4)cc32)cc1 [Example 8]", "EC50": "< 100 nM"}

Using the record for Cc1cnn(C)c1-c1ccc(NC(=O)[C@H](Cc2cc(-c3ccc(=O)n(C(C)C)c3)ccc2Cl)NC(=O)C2CCC2)cc1 [Example 325] , state its measured EC50. > 1000 nM

This collection of values is drawn from patent US20220162191A1.
